TARGET_ENTITY: TREM2 (Homo sapiens)
Construct: expressed in transfected cells
Sequence (Q9NZC2 19-230, one chain of several): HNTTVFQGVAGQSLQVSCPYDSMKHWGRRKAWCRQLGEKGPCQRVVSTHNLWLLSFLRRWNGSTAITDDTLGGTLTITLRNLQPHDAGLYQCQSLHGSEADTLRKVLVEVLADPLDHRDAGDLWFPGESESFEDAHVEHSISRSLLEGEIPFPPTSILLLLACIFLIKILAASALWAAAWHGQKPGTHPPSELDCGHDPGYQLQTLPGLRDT
PROTOCOL_DESCRIPTION: Liposome stimulation pSyk AlphaLISA, HEK293 overexpressing TREM2 and DAP12
Format: cell-based
EXPERIMENTAL_SETUP: liposomes 30% lipid/70% PC (KLA 10%/90%), fold change over HBSS

MOLECULE: CC(C)CCC[C@@H](C)[C@H]1CC[C@H]2[C@@H]3C(=O)C=C4C[C@@H](O)CC[C@]4(C)[C@H]3CC[C@]12C
Human TREM2 (pSyk FOB): 1.10
--
MOLECULE: CCCCCCCCCCCCC/C=C/[C@@H](O)[C@@H](N)COP(=O)(O)O [Sphingosine-1-phosphate (SolP), Sphingosine-1-phosphate]
Human TREM2 (pSyk FOB): 2.42
--
MOLECULE: CC(C)[C@@H](O)CC[C@@H](C)[C@H]1CC[C@H]2[C@@H]3CC=C4C[C@@H](O)CC[C@]4(C)[C@H]3CC[C@]12C [24(S)hydroxycholesterol (24OHC), 24(S)hydroxycholesterol]
Human TREM2 (pSyk FOB): 4.50
--
MOLECULE: CCCCCCCC(=O)OC[C@H](COP(=O)(O)OP(=O)(O)O)OC(=O)CCCCCCC [Diacylglycerol pyrophosphate (DGPP), Diacylglycerol pyrophosphate]
Human TREM2 (pSyk FOB): 3.42
--
MOLECULE: C[C@@H](CO)CCC[C@@H](C)[C@H]1CC[C@H]2[C@@H]3CC=C4C[C@@H](O)CC[C@]4(C)[C@H]3CC[C@]12C [27-hydroxycholesterol (27OHC), 27-hydroxycholesterol]
Human TREM2 (pSyk FOB): 5.26
--
MOLECULE: CCCCCCCCCCCCC/C=C/[C@@H](O)[C@@H](N)COP(=O)([O-])OCC[N+](C)(C)C
Human TREM2 (pSyk FOB): 0.67
--
MOLECULE: CCCCCCCCCCCCCCCC(=O)OC[C@H](COP(=O)([O-])OCC[N+](C)(C)C)OC(=O)CCCC=O
Human TREM2 (pSyk FOB): 0.86
--
MOLECULE: C[C@H](CCCC(C)(C)O)[C@H]1CC[C@H]2[C@@H]3CC=C4C[C@@H](O)CC[C@]4(C)[C@H]3CC[C@]12C [25(S)hydroxycholesterol (25OHC), 25(S)hydroxycholesterol]
Human TREM2 (pSyk FOB): 2.61
--
MOLECULE: CCCCCCCCCCCCC/C=C/[C@@H](O)[C@@H](N)CO[C@@H]1O[C@H](CO)[C@@H](O)[C@H](O)[C@H]1O
Human TREM2 (pSyk FOB): 1.34
--
MOLECULE: CC(C)CCC[C@@H](C)[C@H]1CC[C@H]2[C@@H]3CC=C4C[C@@H](OP(=O)(O)O)CC[C@]4(C)[C@H]3CC[C@]12C [Cholesterol phosphate (CP), Cholesterol phosphate]
Human TREM2 (pSyk FOB): 2.43
--
MOLECULE: CCCCCCCCCCCCC/C=C/[C@@H](O)[C@@H](N)CO
Human TREM2 (pSyk FOB): 0.67

====

TARGET_ENTITY: R47H TREM2 mutant (Homo sapiens, UniProt Q9NZC2, R47H)
Construct: expressed in transfected cells
Sequence (Q9NZC2 19-230 R47H): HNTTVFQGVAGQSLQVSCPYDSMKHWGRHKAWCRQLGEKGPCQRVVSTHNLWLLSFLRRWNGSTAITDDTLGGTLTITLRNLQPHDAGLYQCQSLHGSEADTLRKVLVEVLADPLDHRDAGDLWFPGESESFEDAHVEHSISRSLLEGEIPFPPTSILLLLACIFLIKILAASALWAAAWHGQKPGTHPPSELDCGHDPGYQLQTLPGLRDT
Sequence (O43914 22-113 partner): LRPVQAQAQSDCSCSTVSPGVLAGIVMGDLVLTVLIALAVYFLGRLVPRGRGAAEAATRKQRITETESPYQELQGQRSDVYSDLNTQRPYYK
PROTOCOL_DESCRIPTION: Liposome stimulation pSyk AlphaLISA, HEK293 overexpressing TREM2-R47H and DAP12
Format: cell-based
EXPERIMENTAL_SETUP: liposomes 30% lipid/70% PC (KLA 10%/90%), fold change over HBSS
Measured R47H TREM2 mutant (pSyk FOB) values are reported for all entries that follow.
QUANTITY_MEASURED: R47H TREM2 mutant (pSyk FOB)

COMPOUND: CCCCCCCCCCCCC/C=C/[C@@H](O)[C@@H](N)CO[C@@H]1O[C@H](CO)[C@@H](O)[C@H](O)[C@H]1O [Glucosyl sphingosine (GlcSo), Glucosyl sphingosine]
QUANTITY_MEASURED: R47H TREM2 mutant (pSyk FOB)
RECORDED_VALUE: 1.27

COMPOUND: CCCCCCCCCCCCC/C=C/[C@@H](O)[C@@H](N)COP(=O)([O-])OCC[N+](C)(C)C [Lysosphingomyelin (LSM), Lysosphingomyelin]
QUANTITY_MEASURED: R47H TREM2 mutant (pSyk FOB)
RECORDED_VALUE: 0.85

COMPOUND: C[C@@H](CO)CCC[C@@H](C)[C@H]1CC[C@H]2[C@@H]3CC=C4C[C@@H](O)CC[C@]4(C)[C@H]3CC[C@]12C [27-hydroxycholesterol (27OHC), 27-hydroxycholesterol]
QUANTITY_MEASURED: R47H TREM2 mutant (pSyk FOB)
RECORDED_VALUE: 9.25

COMPOUND: CCCCCCCC(=O)OC[C@H](COP(=O)(O)OP(=O)(O)O)OC(=O)CCCCCCC [Diacylglycerol pyrophosphate (DGPP), Diacylglycerol pyrophosphate]
QUANTITY_MEASURED: R47H TREM2 mutant (pSyk FOB)
RECORDED_VALUE: 3.70

COMPOUND: CCCCCCCCCCCCCCCCCCCCCCCCCC(=O)N[C@@H](CO[C@H]1O[C@H](CO)[C@H](O)[C@H](O)[C@H]1O)[C@H](O)[C@H](O)CCCCCCCCCCCCCC [α-galactosylceramide (KRN7000), α-galactosylceramide]
QUANTITY_MEASURED: R47H TREM2 mutant (pSyk FOB)
RECORDED_VALUE: 0.97
